# credit: PubChem BioAssay

Protocol Description: inhibitors of the yeast RAM network, pilot screen, dse1pr::URA3 reporter, 5-FOA selection (AID 869);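 further: 0% = DMSO wells with no growth and 100% = 10 µM 1-NA-PP1 with full growth; RAM network block rescues cells from 5-FOA so hits raise OD615 growth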
Settings: S. cerevisiae dse1pr::URA3 5-FOA growth, OD615, 2 d; at 10 µM; hits give high values; strain carries analog-sensitive mutant Cbk1 kinase
Recorded inhibition, one value per entry.
Value Kind: inhibition (%)

Molecule: CCOCCCNC(=O)c1cn(C)c2ccc(S(=O)(=O)N(C)C3CCCCC3)cc2c1=O
Quantitative Readout: 0.93

Molecule: COc1ccc(C2N3CC4(C)CN2CC(C)(C3)C4)cc1OC (stereo not drawn)
Quantitative Readout: 1.08

Molecule: COC(=O)c1cn(NC(=O)C2CCCCC2)c(=O)c2ccccc12
Quantitative Readout: -0.16

Molecule: Cc1nccn1-c1c2c(c(C#N)c3nc4ccccc4n13)CCC2
Quantitative Readout: 2.08

Molecule: Cc1cc(N2CCOCC2)nc2cc(O)ccc12
Quantitative Readout: 1.31

Molecule: Cc1cc(C)c(C#N)c(Nc2ccc3c(c2)OCCO3)n1
Quantitative Readout: 0.915

Molecule: CC1(C)Cc2c(sc3c2c(=N)n(Cc2ccco2)c(=O)n3CC(=O)Nc2cccc(Cl)c2)CO1
Quantitative Readout: 3.25

Molecule: CCOC(=O)C1CCCN(C(=O)CC(C)c2ccccc2)C1 (stereo not drawn)
Quantitative Readout: 1.57

Molecule: Cc1cc(F)ccc1S(=O)(=O)Nc1c(C)n(C)n(-c2ccccc2)c1=O
Quantitative Readout: 0.205

Molecule: CCOC(=O)N1CCN(C(=O)C(CC(C)C)NC(=O)C2CCCCC2)CC1 (stereo not drawn)
Quantitative Readout: 0.455

Molecule: CCCCCn1c(CNC(=O)COC)nc2ccccc21
Quantitative Readout: 0.855

Molecule: CC(=O)Nc1nc2cc3c(cc2s1)OCO3
Quantitative Readout: 1.81

Molecule: CC(=O)c1ccc(NC(=O)C2CCCN2S(=O)(=O)c2ccc(F)cc2)cc1 (stereo not drawn)
Quantitative Readout: 2.9

====

Protocol Description: viability gain of MRP-1-high H69AR cells under doxorubicin, pilot screen, MRP-1 activator project, CellTiter-Glo, duplicate (AID 807);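 further: compound pretreatment 18-22 h then 72 h combined with doxorubicin; 0% = doxorubicin alone and 100% = vehicle without doxorubicin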
Settings: H69AR viability with doxorubicin, CellTiter-Glo luminescence; at 10 µM; hits give high values

Compound: O=C1c2ccccc2C(Nc2ccc(Cl)cn2)N1c1ccccn1 (configuration not stated)
viability increase / %: -4.01
--
Compound: COC(=O)c1ccccc1NC(=O)C1CCCN(c2nnc(-n3cccc3)s2)C1 (configuration not stated)
viability increase / %: -2.28
--
Compound: Cc1ccc(Cl)cc1N(CC(=O)N1CCCCCC1)S(C)(=O)=O
viability increase / %: -3.63
--
Compound: O=C(C1CCCN(S(=O)(=O)c2ccc(F)cc2)C1)N(Cc1cccs1)C1CC1 (configuration not stated)
viability increase / %: -1.34
--
Compound: CCCOC(=O)c1cccc(NC(=O)C(C)(C)C)c1
viability increase / %: 0.9
--
Compound: Cc1cc(NC(=O)c2cc(C3CC3)on2)n(-c2ccccc2)n1
viability increase / %: -0.45
--
Compound: CCC1(C)OC(=O)N2CCc3c(C)[nH]c4c(C)ccc(c34)C21C (configuration not stated)
viability increase / %: -1.6
--
Compound: COc1ccc(-c2nc(CS(=O)CC(=O)NCc3ccco3)c(C)o2)cc1OC (configuration not stated)
viability increase / %: -4.57
--
Compound: CC(=O)Nc1sc(C)c(C)c1CN1CCN(S(=O)(=O)c2ccccc2)CC1
viability increase / %: -2.28
--
Compound: O=C(Cn1cc2c(n1)CCCCC2)NCc1cccs1
viability increase / %: -1.84
--
Compound: COc1ccc(NC(=O)N(Cc2ccc(C)cc2)Cc2ccccn2)c(OC)c1
viability increase / %: -1.9
--
Compound: CCCC(NS(=O)(=O)c1ccc(Br)cc1)C(=O)O (configuration not stated)
viability increase / %: -0.09
--
Compound: Cc1c(C(=O)NCC2CCCO2)oc2ccc(S(=O)(=O)N3CCCC3)cc12 (configuration not stated)
viability increase / %: -2.38
--
Compound: Cc1sc(NC(=O)c2ccco2)c(C(c2cccnc2)N2CCN(c3ccc(F)cc3)CC2)c1C (configuration not stated)
viability increase / %: -5.73
--
Compound: COCCNC(=O)NC1(C(F)(F)F)Oc2ccc(Cl)cc2O1 (configuration not stated)
viability increase / %: -4.63
--
Compound: COC(=O)C1=C(C)NC2=C(C(=O)CC(c3cccs3)C2)C1c1ccsc1 (configuration not stated)
viability increase / %: -6.75
--
Compound: CCN(CCNC(=O)C1CCN(c2nnc(-n3cccc3)s2)CC1)c1ccccc1
viability increase / %: -3.79
--
Compound: O=C(NCCCN1CCc2ccccc2C1)C1CCN(c2nnc(-n3cccc3)s2)CC1
viability increase / %: -3.55
--
Compound: O=C(NCc1cccs1)c1cnc2sccn2c1=O
viability increase / %: 0.04
--
Compound: CCOC(=O)c1sc(NC(=O)C2CC2)nc1C
viability increase / %: 0.91
--
Compound: COc1ccc(Nc2ncnc3c2cnn3Cc2ccccc2)cc1
viability increase / %: 1.14
--
Compound: Cc1nc2ccccc2c(=O)n1CCCO
viability increase / %: -2.52
--
Compound: Cc1ccc(S(=O)(=O)NCCCN2CCOCC2)c(C)c1
viability increase / %: -1.19
--
Compound: Cc1onc(-c2ccccc2Cl)c1C(=O)N1CCN(c2cccc(Cl)c2)CC1
viability increase / %: -6.53
--
Compound: CN(Cc1ccccc1)C(=O)CCn1c(=O)oc2ccccc21
viability increase / %: -1.33
--
Compound: COc1ccc(-n2c(Cn3c(=O)sc4ccccc43)nnc2SCC(=O)N2CCCCC2)cc1
viability increase / %: -0.89
--
Compound: CCOC(=O)/C=c1\sc2n(c1=O)CCN=2
viability increase / %: -3.32
--
Compound: CC1(C)CC(=O)c2cc(C(=O)N3CCN(CCO)CC3)c(=O)n(-c3ccc(Cl)cc3)c2C1
viability increase / %: -0.93
--
Compound: CCn1cc(C(=O)NC2CCCCCC2)c2cc(OC)c(OC)cc2c1=O
viability increase / %: -3.91
--
Compound: Cc1cccc(N2CCN(C(c3cccs3)c3nnnn3C(C)(C)C)CC2)c1C (configuration not stated)
viability increase / %: -0.98
--
Compound: CCc1nnc2n1N=C(c1ccc(-c3cc(Cl)ccc3Cl)o1)CS2
viability increase / %: -7.22
--
Compound: O=C(NCc1cccs1)C1CCCN(S(=O)(=O)c2ccc3c(c2)OCO3)C1 (configuration not stated)
viability increase / %: -3.16

====

Protocol Description: 384-well plate pilot, post-Golgi transport modulator project, inhibition of yeast transport mutant growth (AID 636)
Settings: absorbance 615 nm, about 18 h, hits give high values
A collection of compounds and their measured inhibition
Value Kind: inhibition (%)

Sample Smiles: CCOC(=O)CNC(=O)Nc1nnc(-c2ccc(OCC)cc2)o1
Quantitative Readout: -1.08
//
Sample Smiles: COc1cccc(CNC(=O)C2CCN(C(=O)N(C)C)CC2)c1
Quantitative Readout: -0.64
//
Sample Smiles: N#Cc1c(NC(=O)CSc2nnnn2C2CCCC2)sc2c1CCCC2
Quantitative Readout: -0.53
//
Sample Smiles: CCn1c(=O)c(C(=O)NCCc2ccccc2)c(O)c2ccccc21
Quantitative Readout: -1.03
//
Sample Smiles: CCOC(=O)c1ccccc1NC(=O)c1cc2sccc2n1C
Quantitative Readout: 1.23
//
Sample Smiles: N/C(=N/O)c1nc(N2CCCC2)nc(N(c2ccccc2)c2ccccc2)n1
Quantitative Readout: -6.62
//
Sample Smiles: O=C(C1CCN(S(=O)(=O)c2cccnc2)CC1)N1CCN(c2ccc(Cl)cc2)CC1
Quantitative Readout: -2.11
//
Sample Smiles: CCSc1oc(-c2cccs2)nc1S(=O)(=O)c1ccccc1
Quantitative Readout: -5.33

====

Protocol Description: growth suppression of beta-catenin knockout HCT116, pilot screen, human colon tumor cells (AID 823);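 further: 0% = wells killed by 20 µM Hyamine and 100% = untreated DMSO cell wells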
Settings: CellTiter-Glo, 60 h, at 10 µM, hits give low values
Results filed as inconclusive are left out.
Value Kind: viability (%)

Compound: COc1ccc(Br)cc1C1CC(=O)N2CN(C)CSC2=C1C#N (stereo unspecified)
Quantitative Readout: 81.6
--
Compound: CC(=O)c1c(C)oc(C)c1CSCc1ccc(C(=O)O)o1
Quantitative Readout: 95.7
--
Compound: COc1ccc(NC(=O)C2CCCN2S(=O)(=O)c2ccc3c(c2)CCC(=O)N3)cc1Cl (stereo unspecified)
Quantitative Readout: 90.8
--
Compound: CN1CCCc2cc3c(C(F)(F)F)cc(=O)oc3nc21
Quantitative Readout: 94.2
--
Compound: COc1ccc(-c2noc(-c3ccccc3F)n2)cc1
Quantitative Readout: 86.6
--
Compound: Cc1ccc(C(=O)NCCCn2ccnc2)o1
Quantitative Readout: 101
--
Compound: Cc1sc2ncnc(SCC(=O)c3cccs3)c2c1C
Quantitative Readout: 100
--
Compound: CC(=O)Nc1ccc(S(=O)(=O)Nc2cccc(C(=O)NC(C)(C)C)c2)cc1
Quantitative Readout: 92.1
--
Compound: CC(=O)C(C)Oc1ccc2c3c(c(=O)oc2c1)CCCC3 (stereo unspecified)
Quantitative Readout: 93
--
Compound: C=CCOC(=O)C1=C(C)NC(C)=C(C(=O)OCC=C)C1c1ccc(O)cc1
Quantitative Readout: 78.1
--
Compound: Cn1c(NC(=O)c2ccc(Cl)cc2Cl)cc(=O)n(C)c1=O
Quantitative Readout: 98.7
